IC50 values by entry
target-entity: human CatL (Homo sapiens (Human), UniProt P07711)
Sequence (P07711 whole entry, looked up): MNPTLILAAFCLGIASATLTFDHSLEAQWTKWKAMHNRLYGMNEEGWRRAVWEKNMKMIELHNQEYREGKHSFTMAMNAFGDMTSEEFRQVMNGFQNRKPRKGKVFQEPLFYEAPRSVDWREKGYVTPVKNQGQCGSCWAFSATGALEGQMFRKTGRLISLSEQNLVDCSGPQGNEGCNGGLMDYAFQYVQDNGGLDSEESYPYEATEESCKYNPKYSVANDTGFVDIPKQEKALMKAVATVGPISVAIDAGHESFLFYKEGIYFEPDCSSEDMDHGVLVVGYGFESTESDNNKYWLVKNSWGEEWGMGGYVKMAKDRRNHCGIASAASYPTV
protocol-text: Human Cathepsin L (CatL) enzymatic assay
Type: biochemical
experimental-conditions: CatL 0.05 nM, substrate 500 nM, pH 5.5; read-out: Enzymatic inhibition IC50
Give a bare numeral; the unit nM is implied.

Worked cases, IC50 given:
>>> test_value("N#CC1(NC(=O)[C@H](Cc2nc3ccc(C(F)(F)F)cc3o2)NC(=O)c2cccc(Cl)c2)CC1")
94.6
>>> test_value("N#CC1(NC(=O)[C@H](Cc2nc3cc(Cl)ccc3o2)NC(=O)c2cccc(Cl)c2)CC1")
17.4
>>> test_value("N#Cc1cccc2nc(C[C@H](NC(=O)c3cccc(Cl)c3)C(=O)NC3(C#N)CC3)oc12")
122
>>> test_value("Cc1cc(-c2ccc3nc(C[C@H](NC(=O)c4cc(C5(C)CC5)nn4C4CC4)C(=O)NC4(C#N)CC4)oc3c2)ccn1")
1.7
>>> test_value("Cc1cccc(-c2ccc3nc(C[C@H](NC(=O)c4cc(C5(C)CC5)nn4C4CC4)C(=O)NC4(C#N)CC4)oc3c2)n1")
16.5
>>> test_value("N#CC1(NC(=O)[C@H](Cc2nc3ccccc3o2)NC(=O)c2cn(C3CC3)nc2C(F)(F)F)CC1")
50.7

API: the following record is the query input.
Prompt: # lookup: IC50 of `N#CC1(NC(=O)[C@H](Cc2nc3ccc(Cl)cc3o2)NC(=O)c2cccc(Cl)c2)CC1`
Response: 30.5
